Measured Rat Brain 2AG % VehCntrl (%) @10 μM accompanies every entry in the list below.
# System: MGL (Rattus norvegicus)
# Construct: one g rat brain was homogenized
# Sequence (Q8R431 whole entry): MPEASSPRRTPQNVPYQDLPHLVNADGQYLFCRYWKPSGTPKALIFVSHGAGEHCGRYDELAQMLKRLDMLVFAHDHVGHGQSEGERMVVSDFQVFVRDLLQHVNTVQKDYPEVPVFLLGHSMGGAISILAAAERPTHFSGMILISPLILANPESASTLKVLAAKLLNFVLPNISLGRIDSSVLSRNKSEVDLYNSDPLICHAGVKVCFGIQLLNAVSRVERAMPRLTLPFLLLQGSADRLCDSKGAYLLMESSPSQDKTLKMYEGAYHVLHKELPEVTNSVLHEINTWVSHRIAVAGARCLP
# Assay name: 2-AG Accumulation Assay (rat brain homogenate)
# Assay type: biochemical
# Recorded conditions: compound 10 μM, percent of vehicle 2-AG accumulation
Assay metric: Rat Brain 2AG % VehCntrl (%) @10 μM

>>> measured("CC1(C)CCC(C)(C)c2cc(CCC(=O)N3CC(N4CCN(C(=O)c5nccs5)CC4)C3)ccc21")
1775
>>> measured("O=C(c1ccc(-c2ccc(F)cc2)cc1)N1CC(N2CCN(C(=O)c3nccs3)CC2)C1")
1258
>>> measured("O=C(c1ccc(-c2cccc(C(F)(F)F)c2)cc1)N1CC(N2CCN(C(=O)c3cscn3)CC2)C1")
1304
>>> measured("O=C(c1ccc(OCc2ccc(Cl)c(Cl)c2)c(F)c1)N1CC(N2CCN(C(=O)c3nccs3)CC2)C1")
1076
>>> measured("O=C(c1ccccc1)N1CCN(C2CN(C(=O)c3ccc(NCc4ccc(F)c(C(F)(F)F)c4)cc3)C2)CC1")
1121
>>> measured("O=C(c1ccc(-c2ccc(Cl)c(Cl)c2)cc1)N1CC(N2CCN(C(=O)c3nccs3)CC2)C1")
1180
>>> measured("O=C(c1ccc(SCc2ccc(Cl)c(Cl)c2)cc1)N1CC(N2CCN(C(=O)c3nccs3)CC2)C1")
1608
>>> measured("O=C(c1ccc(-c2ccccc2)cc1)N1CC(N2CCN(C(=O)c3nccs3)CC2)C1")
1026
